Target: T1, recombinant human IL4Rα-his protein (in house made) (human, UniProt P24394 26-232, limits assumed)
T1 construct: also called Human IL4Ra-his
Assay: SPR (Biacore), antibody captured, IL4Rα-his flowed
Give kon for every item shown.
The reply must contain the numeric value and, after it, the unit.

Recorded kon of huB8G11F2B7G5E8-V10 (antibody, human IgG4 S228P, kappa, V domains shown, Humanized, human IgG4/kappa; also called huBSG11F2B7G5E8-V10) VH: EVQLVQSGAEVKKPGATVKISCKASGFNIKDTYMHWVKQAPGKGLEWVGRIDPTNGYTIYASKFQGRVTITADTSTNTAYMELSSLRSEDTAVYHCVSRRPWFAYWGQGTLVTVSS VL: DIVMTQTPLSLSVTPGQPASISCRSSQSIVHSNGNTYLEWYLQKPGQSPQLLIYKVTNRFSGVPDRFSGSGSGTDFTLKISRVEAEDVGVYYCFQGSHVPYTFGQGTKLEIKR , please.
585000 M⁻¹ s⁻¹

Recorded kon of huB8G11F2B7G5E8-V5 (antibody, human IgG4 S228P, kappa, V domains shown, Humanized, human IgG4/kappa; also called huBSG11F2B7G5E8-V5) VH: EVQLVQSGAEVKKPGATVKISCKASGFNIKDTYMHWVKQAPGKGLEWVGRIDPTNGYTIYASKFQGRATITADTSSNTAYMELSSLRSEDTAVYHCVSRRPWFAYWGQGTLVTVSS VL: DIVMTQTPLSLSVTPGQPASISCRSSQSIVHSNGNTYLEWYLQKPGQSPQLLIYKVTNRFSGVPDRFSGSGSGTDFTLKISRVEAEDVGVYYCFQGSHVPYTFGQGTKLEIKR , please.
584000 M⁻¹ s⁻¹

Next:
Recorded kon of huB8G11F2B7G5E8-V14 (antibody, human IgG4 S228P, kappa, V domains shown, Humanized, human IgG4/kappa; also called huBSG11F2B7G5E8-V14) VH: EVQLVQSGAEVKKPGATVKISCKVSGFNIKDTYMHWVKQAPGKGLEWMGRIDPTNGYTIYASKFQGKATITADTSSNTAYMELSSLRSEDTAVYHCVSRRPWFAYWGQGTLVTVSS VL: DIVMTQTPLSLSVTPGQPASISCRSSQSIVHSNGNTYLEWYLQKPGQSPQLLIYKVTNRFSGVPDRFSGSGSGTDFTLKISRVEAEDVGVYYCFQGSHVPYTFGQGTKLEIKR , please.
306000 M⁻¹ s⁻¹
